The reader will find reported % Maximum blocking of 200 nM antibody values listed item by item below.
- test target: T1, human IL-25 expressed with a C-terminal myc-myc-hexahistidine tag (human)
- T1 construct: also called hIL-25-MMH; Human IL-25-MMH
- T1 chain: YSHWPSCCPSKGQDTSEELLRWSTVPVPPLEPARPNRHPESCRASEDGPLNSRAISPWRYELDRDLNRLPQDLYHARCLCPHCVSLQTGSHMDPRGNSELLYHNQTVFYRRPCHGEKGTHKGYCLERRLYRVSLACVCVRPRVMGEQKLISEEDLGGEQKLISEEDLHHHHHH
- assay overview: competition ELISA, 2 nM hIL-25-MMH binding to coated hIL-17RB-hFc
Express it in %; write the number only.

binder	unit descriptor	% Maximum blocking of 200 nM antibody
H4H10871P (antibody, human IgG4, V domains shown, H4H prefix = human IgG4 Fc) VH: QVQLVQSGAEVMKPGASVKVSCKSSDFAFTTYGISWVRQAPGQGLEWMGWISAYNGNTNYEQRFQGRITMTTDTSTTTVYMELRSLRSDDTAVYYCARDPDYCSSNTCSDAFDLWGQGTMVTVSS VL: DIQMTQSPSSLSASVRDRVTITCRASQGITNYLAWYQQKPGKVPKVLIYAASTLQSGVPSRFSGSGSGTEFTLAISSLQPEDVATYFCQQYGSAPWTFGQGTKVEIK	%	92

Item under review: H4H10907P (antibody, human IgG4, V domains shown, H4H prefix = human IgG4 Fc) VH: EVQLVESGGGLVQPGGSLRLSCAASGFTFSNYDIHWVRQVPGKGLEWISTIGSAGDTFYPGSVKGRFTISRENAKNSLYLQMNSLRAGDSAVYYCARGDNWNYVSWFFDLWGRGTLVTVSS VL: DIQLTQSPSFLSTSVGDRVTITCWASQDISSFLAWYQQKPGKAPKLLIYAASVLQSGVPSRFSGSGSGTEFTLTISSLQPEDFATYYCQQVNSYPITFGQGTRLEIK . Reported % Maximum blocking of 200 nM antibody? 87

If you can, please state the reported % Maximum blocking of 200 nM antibody value of H4H10876P (antibody, human IgG4, V domains shown, H4H prefix = human IgG4 Fc) VH: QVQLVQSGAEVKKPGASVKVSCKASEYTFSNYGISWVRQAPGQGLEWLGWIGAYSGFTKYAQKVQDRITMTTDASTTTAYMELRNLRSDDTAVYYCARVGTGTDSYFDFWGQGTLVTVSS VL: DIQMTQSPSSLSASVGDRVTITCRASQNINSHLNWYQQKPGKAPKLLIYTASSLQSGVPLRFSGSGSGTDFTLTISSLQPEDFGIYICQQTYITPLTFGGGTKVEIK . 89
